# Test System: T1, His-tagged cynomolgus monkey CD38 (ACRO Biosystems, CD8-05223 [sic]) (cynomolgus monkey, UniProt Q5VAN0 43-301)
# T1 construct: bought protein; used for ELISA coating and as SPR analyte; not shown: His tag
# Experiment Notes: SPR (second run), His-tagged CD38
Measured Attribute: Kd (nM)
Express your answer in nM, writing the number without its unit.

Problem: Any idea what Kd was measured for 40769p1.1.B8 (scFv, V domains shown) VH: EVQLLESGGGLVQPGGSLRLSCAASGFTFEDYAMSWVRQAPGKGLEWVSVISSKGGSTSNADSVKGRFTISRDNSKNTLYLQMNSLRAEDTAVYYCAKGMERQYYSYNAMDVWGQGTTVTVSS VL: QSVLTQPPSASGTPGQRVTISCSGSNSNIDVDYVYWYQQLPGTAPRLLIYKDDQRPSGVPDRFSGSKSGTSASLAISGLQSEDEADYYCATWDDNLNSWLFGGGTKLTVL ?
Result: 3.29

Problem: Any idea what Kd was measured for 40769p1.1.G10 (scFv, V domains shown) VH: EVQLLESGGGLVQPGGSLRLSCAASGFTFSDYWMNWVRQAPGKGLEWVSTISSGGSMIYHADSVKGRFTISRDNSKNTLYLQMNSLRPEDTAVYYCAKDNWNDYYGMDVWGQGTTVTVSS VL: QSVLTQPPSASGTPGQRVNISCSGSSSNIRYNYVYWYQQVPGTAPKLLIYKDDQRPSGVPDRFSGSESGTSASLAISGLQSEDEADYYCATWDGSLNARVFGGGTKLTVL ?
Result: 72.1

Problem: Any idea what Kd was measured for 40769p1.1.G12 (scFv, V domains shown) VH: EVQLLESGGGLVQPGGSLRLSCAASGFTFDDYVMSWVRQAPGKGLEWVSEISESDGSNKYYADSVKGRFIISRDNSKNTLYLQMNSLRAEDTAVYYCARLEPEKYYGMDVWGQGTTVTVSS VL: QSVLTQPPSASGTPGQRVTISCSGSNSNIGNNLVSWYQQLPGTAPKLLIYRHDHRPSGVPDRFSGSKSGTSASLAISGLQSEDEADYYCATWDDSLNGRAFGGGTKLTVL ?
Result: 15.3

Problem: Any idea what Kd was measured for 40769p1.2.B10 (scFv, V domains shown) VH: EVQLLESGGGLVQPGGSLRLSCPASGFDFSSYWMTWVRQAPGKGLEWVSTITDSGGRAWYADSVRGRFTISRDNSKNTLYLQMNSLRAEDTAVYYCARDTPKTYYYYAMDVWGQGTTVTV VL: QSALTQPPSASGTPGQRVTISCSGSSSNIQYSYVSWYQQLPGTAPKLLIYNNVQRPSGVPDRFSGSKSGTSASLAISGLQSEDEADYYCATWDESLLGLWVFGGGTKLTVL ?
Result: 24.3

Problem: Any idea what Kd was measured for 40769p1.1.E2 (scFv, V domains shown) VH: EVLLLESGGGLVQPGGSLRLSCAASGFTFSDYWMSWVRQAPGKGLEWVSTISISAGIIYYADSVKGRFTISRDNSKNTLYLQMNSLRAEDTAVYYCAKDNWNDYYGMDVWGQGTTVTVSS VL: QSVLTQPPSASGTPGQRVTMSCSGNNQNIRDNYVYWYQQVPGTAPKLLIYKDDQRPSGVPDRFSGSKSGTSASLAISGLQSEDEADYYCATWDGSLKARVFGGGTKLTVL ?
Result: 8.31
